experimental system: Autotaxin (Homo sapiens);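 note: activity read as cleavage of a fluorescent lysophosphatidylcholine analog by autotaxin expressed in the cells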
conditions used: MDA-MB-435, at 10 µM
Description: Inhibition of human autotaxin expressed in MDA-MB-435 cells assessed as fluorescent lysophosphatidyl choline analog hydrolysis at 10 uM
Measured inhibition, listed per entry.
// units = %; emit number, no label

Past entries and their recorded results:
INSERT INTO measurements (molecule, observed_property, result_unit, quantitative_readout) VALUES
  ('CCn1cc(C(=O)O)c(=O)c2cc(F)c(N3CCN(C(=S)NC4CC5CCC4C5)CC3)cc21 (stereo not drawn)', 'inhibition', '%', 83),
  ('CCn1cc(C(=O)O)c(=O)c2cnc(N3CCN(C(=S)Nc4cc(Cl)cc(Cl)c4)CC3)nc21', 'inhibition', '%', 0),
  ('CCOc1ccccc1N1C(=O)c2ccc(C(=O)c3ccc4c(c3)C(=O)N(c3ccccc3OCC)C4=O)cc2C1=O', 'inhibition', '%', 86),
  ('Cc1ccc(N2C(=O)c3ccc(C(=O)c4ccc5c(c4)C(=O)N(c4ccc(C)cc4C(=O)O)C5=O)cc3C2=O)c(C(=O)O)c1', 'inhibition', '%', 70),
  ('CC(=O)OCCCN1C(=O)c2ccc(C(=O)c3ccc4c(c3)C(=O)N(CCCOC(C)=O)C4=O)cc2C1=O', 'inhibition', '%', 58);

Input `Cc1ccc(/N=N/c2cc(C)ccc2NC(=O)c2ccc3c(c2)C(=O)N(N2C(=O)c4ccccc4C2=O)C3=O)cc1` . Output inhibition: 81

Input CCn1cc(C(=O)O)c(=O)c2cnc(N3CCN(C(=S)NC(CC(=O)OC)C(=O)OC)CC3)nc21 (stereo not drawn) . Output inhibition: 62

Input `O=C(O)c1ccc2c(c1)C(=O)N(c1cccc(C(=O)Nc3cccc(Cl)c3)c1)C2=O` . Output inhibition: 48
